System tested: alpha-synuclein (αsyn) pre-formed fibrils (Homo sapiens, UniProt P37840)
Construct: Full-length wildtype human αsyn, pre-formed amyloid fibrils (PFFs)
Protocol description: fluorescence titration of h-FTAA with […] recombinant fibrils, simulated binding curve; lifetime imaging (FLIM)
Endpoint label: Kd

Lab note: O=C(O)Cc1cc(-c2ccc(-c3ccc(C(=O)O)s3)s2)sc1-c1ccc(-c2sc(-c3ccc(-c4ccc(C(=O)O)s4)s3)cc2CC(=O)O)s1 gave Kd of < 100 nM
